target: T1, human IL-6 (Interleukin-6) (human, UniProt P05231 30-212); assay: Biacore (SPR), antibody captured on anti-human Fc, IL-6 as analyte
T1 construct: also called 001 IL-6 antigen
assayReadout: Kd (nM)
Give the value, in units of nM, as a plain number.

Before answering, review these 2 worked examples.
Returns the measured Kd for the input binder. Input: Anti-IL-6 Ab BA848 (antibody, V domains shown, Humanized monoclonal antibody) VH: EVQLVQSGAEVKKPGASVKVSCKASGFTFSSFAMSWVRQAPGQGLEWMGEISSGGSYTYYPDTVTGRFTISRDNAKNSLYLQMNSLRAEDTAVYYCARGLWGYYALDYWGQG VL: AIQLTQSPSSLSASVGDRVTITCSASSSVSYMYWYQQKPGQAPRLLIYDTSNLASGIPPRFSGSGYGTDFTLTINNIESEDAAYYFCQQWSGYPYTFGQG
0.127

Returns the measured Kd for the input binder. Input: Anti-IL-6 Ab BA840 (antibody, V domains shown, Humanized monoclonal antibody) VH: QVQLVQSGAEVKKPGASVKVSCKASGFTFSSFAMSWIRQPPGKGLEWIGEISSGGSYTYYPDTVTGRFTISRDNAKNSLYLQMNSLRAEDTAVYYCARGLWGYYALDYWGQG VL: EIVLTQSPDFQSVTPKEKVTITCSASSSVSYMYWYLQKPGQSPQLLIYDTSNLASGIPPRFSGSGYGTDFTLTINNIESEDAAYYFCQQWSGYPYTFGQG
0.236

Further cases:
Returns the measured Kd for the input binder. Input: Anti-IL-6 Ab BA939 (antibody, V domains shown, Humanized monoclonal antibody) VH: QVQLVQSGAEVKKPGASVKVSCKASGFTFSSFAMSWVRQAPGQGLEWMGEISSGGSYTYYPDTVTGRFTISRDNAKNSLYLQMNSLRAEDTAVYYCARGLWGYYALDYWGQG VL: DIQMTQSPSSLSASVGDRVTITCSASSSVSYMYWYQQKPGQAPRLLIYDTSNLASGIPPRFSGSGYGTDFTLTINNIESEDAAYYFCQQWSGYPYTFGQG
0.04
